Run description: qHTS assay for small molecules that induce genotoxicity in human embryonic kidney cells expressing luciferase-tagged ATAD5 (AID 651632); further: on the % scale 0 is the no-effect control and ±100 the full control effect; nearly all actives have a fitted effect of over 15% in size
Experimental parameters: HEK293T ATAD5-luciferase induction, 16 h; series mostly up to 83.3 µM
Records with an inconclusive call do not appear. Active and inactive are the calls of the source. The call rests on the fitted dose curve; in most records, active means well fitted activation curve with a large enough effect in the repeat runs; inconclusive means weak or mixed curves; inactive means no such curve, though single readings can be large or run the other way.
Metric name: outcome

As a guide, the following entries are already answered.
Compound: Cc1cc(C(=O)O)ccc1[N+](=O)[O-]
outcome: inactive
//
Compound: CCC(Cl)CCC(Cl)C(Cl)CC(Cl)C(Cl)C(Cl)CCl (configuration not stated)
outcome: inactive
//
Compound: CN(C)c1ccc(C(c2ccccc2)c2ccc(N(C)C)cc2)cc1
outcome: inactive
//
Compound: CCNc1cc(O)ccc1C
outcome: inactive

q: Fill in outcome for record OC(C#CCN1CCCC1)(c1ccccc1)c1ccccc1
a: inactive

q: Fill in outcome for record CCCCC(CC)CN1C(=O)C2C3C=CC(C3)C2C1=O (configuration not stated)
a: inactive

q: Fill in outcome for record CNCCCN1c2ccccc2CCc2ccccc21
a: inactive

---

Run description: qHTS assay to test for compound auto fluorescence at 590 nm (red) in HepG2 cells (AID 720674); further: on the % scale 0 is the no-effect control and ±100 the full control effect
Experimental parameters: HepG2 autofluorescence, red 540/590 nm, 1 h; series mostly up to 91.3 µM
The source made the active and inactive calls. Calls follow the shape of the dose curve; as a rule, active = well fitted curve in the direction sought with a large enough effect in the repeat runs; inconclusive = weak or mixed curves; inactive = flat fitted curve, though single readings scatter.
Metric name: fluorescence, relative to Rose Bengal

Compound: CCCCCCCCCCCCCCOS(=O)(=O)O
Metric name: fluorescence, relative to Rose Bengal
Recorded value: inactive
//
Compound: CCCCCCCCCc1ccc(OCCOCCO)cc1
Metric name: fluorescence, relative to Rose Bengal
Recorded value: inactive
//
Compound: OCCN1CCN(CCCN2c3ccccc3C=Cc3ccccc32)CC1
Metric name: fluorescence, relative to Rose Bengal
Recorded value: inactive
//
Compound: O=C1[C@H]2CCCC[C@H]2C(=O)N1CCCCN1CCN(c2nsc3ccccc23)CC1
Metric name: fluorescence, relative to Rose Bengal
Recorded value: inactive
//
Compound: O=CC1CC=CCC1 (stereo not given)
Metric name: fluorescence, relative to Rose Bengal
Recorded value: inactive

q: Fill in fluorescence, relative to Rose Bengal for record CN(C)CCCN1c2ccccc2Sc2ccccc21
a: 0.23% [at 18.6 µM] (inactive)

q: Fill in fluorescence, relative to Rose Bengal for record c1ccc(-c2ccccn2)nc1
a: inactive

q: Fill in fluorescence, relative to Rose Bengal for record CC1OC(=O)C(C)OC1=O (stereo not given)
a: inactive

q: Fill in fluorescence, relative to Rose Bengal for record CCCCC(CC)COC(=O)COc1ccc(Cl)cc1Cl (stereo not given)
a: inactive

q: Fill in fluorescence, relative to Rose Bengal for record O=C(O)c1ccc(-n2nc(-c3ccccc3O)nc2-c2ccccc2O)cc1
a: inactive

q: Fill in fluorescence, relative to Rose Bengal for record CO[C@@H]1[C@H](OC(=O)/C=C/C=C/C=C/C=C/C(=O)O)CC[C@]2(CO2)[C@H]1[C@@]1(C)O[C@@H]1CC=C(C)C
a: inactive

---

Assay target: Estrogen receptor beta (Homo sapiens) (UniProt Q92731)
Sequence (Q92731 whole entry, looked up): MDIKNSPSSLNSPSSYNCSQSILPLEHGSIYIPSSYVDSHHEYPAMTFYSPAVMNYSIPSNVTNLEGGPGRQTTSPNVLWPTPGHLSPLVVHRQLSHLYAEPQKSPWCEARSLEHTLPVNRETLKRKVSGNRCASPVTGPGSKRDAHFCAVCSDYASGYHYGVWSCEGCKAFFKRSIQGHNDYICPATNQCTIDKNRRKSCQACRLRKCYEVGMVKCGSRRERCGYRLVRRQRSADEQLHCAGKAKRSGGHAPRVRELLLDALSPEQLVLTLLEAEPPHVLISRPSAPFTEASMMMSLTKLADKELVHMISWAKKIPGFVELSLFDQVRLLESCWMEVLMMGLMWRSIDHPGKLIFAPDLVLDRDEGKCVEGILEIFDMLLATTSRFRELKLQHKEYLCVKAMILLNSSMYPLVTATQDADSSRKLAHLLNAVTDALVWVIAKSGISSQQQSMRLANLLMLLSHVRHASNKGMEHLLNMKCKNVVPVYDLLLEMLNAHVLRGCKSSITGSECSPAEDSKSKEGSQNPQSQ
Run description: qHTS assay to identify small molecule agonists of the estrogen receptor beta (ER-beta) signaling pathway (AID 1259377); further: on the % scale 0 is the no-effect control and ±100 the full control effect
Experimental parameters: ER-beta-UAS-bla HEK293T, beta-lactamase FRET ratio, 16 h; series mostly up to 92.4 µM
Results filed as inconclusive are left out. Calls of active or inactive are those of the source. The call rests on the fitted dose curve; in most records, active means well fitted activation curve with a large enough effect in the signal ratio in the repeat runs (not every such curve was filed as active); inconclusive means weak or mixed curves, or effect the other way; inactive means flat fitted curve, though single readings scatter; the % refers to the signal ratio.
Please reply with one of these outcomes: active, inactive

q: Test call for this compound, please: O=[N+]([O-])c1cccc(S(=O)(=O)O)c1
a: inactive

q: Test call for this compound, please: O=C(Nc1ccccc1)c1ccccc1O
a: inactive

q: Test call for this compound, please: CCCn1cnc2c1c(=O)n(CCCCC(C)=O)c(=O)n2C
a: inactive

q: Test call for this compound, please: CCCCCCCCO[C@@H]1O[C@H](CO)[C@@H](O)[C@H](O)[C@H]1O
a: inactive

q: Test call for this compound, please: COc1ccc(C)cc1[N+](=O)[O-]
a: inactive

q: Test call for this compound, please: CN1C[C@H]2c3ccccc3Oc3ccc(Cl)cc3[C@@H]2C1
a: inactive

q: Test call for this compound, please: NCCCN1CCOCC1
a: inactive

q: Test call for this compound, please: O=[N+]([O-])c1ccc2[nH]ncc2c1
a: inactive
